Numbers sourced from paper PMC4552634.

Catalogue of molecules with associated % Inhibition
# Tested on: P. falciparum stage V gametocytes
# Set-up: BacTiter-Glo ATP luminescence viability of purified stage V gametocytes in 384-well plates, per cent inhibition versus DMSO
# measurement setup: 48 h, 5 µM; inhibitor
Screen size: about 13,000 compounds; about 3,200 (25%) showed an effect of 50% or more. The list shows a part of the results.
Respond numerically; units are % and should not be typed.

Known results for molecules:
[
  {
    "smiles data": "Cc1noc(-c2ccccc2)c1NC(=O)NC1CCN(CCCCCNC(=O)/C=C/c2ccc(Cl)c(Cl)c2)CC1",
    "measured parameter": "% Inhibition",
    "result value": -22.75
  },
  {
    "smiles data": "O=C(/C=C/c1ccc(Cl)cc1)NCCCCCN1CCN(C(=O)C=Cc2ccc(Cl)c(Cl)c2)CC1",
    "measured parameter": "% Inhibition",
    "result value": 71.52
  },
  {
    "smiles data": "O=C(/C=C/c1ccc(C(F)(F)F)cc1)NCCCCCN1CCN(C(=O)Nc2ccc(F)c(Cl)c2)CC1",
    "measured parameter": "% Inhibition",
    "result value": 8.329
  }
]

Look up and state reported % Inhibition for O=C(/C=C/c1ccc(Cl)c(Cl)c1)NCCCCCN1CCCN(C(=O)Nc2ccc(Cl)cc2)CC1
-7.449

* * *

Catalogue of compounds with associated % Inhibition
# Test system: P. falciparum stage V gametocytes
# Set-up: BacTiter-Glo ATP luminescence viability of purified stage V gametocytes in 384-well plates, per cent inhibition versus DMSO
# measurement setup: 48 h, 5 µM; inhibitor
The whole screen tested about 13,000 compounds, of which about 3,200 (25%) showed an effect of 50% or more. Some of the results follow.
Respond numerically; units are % and should not be typed.

[
  {
    "smiles data": "Cc1ccc(-c2nnc(-c3ccc(C(=O)NC4CCN(Cc5ccc(C#N)cc5)CC4)cc3)o2)cc1Br",
    "% Inhibition [%]": -28.74
  },
  {
    "smiles data": "CCCOc1cc(O)c(-c2n[nH]c(C)c2Oc2ccccc2)cc1CC",
    "% Inhibition [%]": -75.18
  },
  {
    "smiles data": "Cc1cc(O)nc(NC(=N)NOCc2ccccc2)n1",
    "% Inhibition [%]": 7.113
  }
]

Find % Inhibition for CCCCNC[C@@H](O)[C@H](Cc1ccccc1)NC(=O)c1cc(NCC)cc(N2CCCCS2(=O)=O)c1 on P. falciparum stage V gametocytes and write it down.
4.465

* * *

Catalogue of molecules with associated % Inhibition
# Test system: P. falciparum stage V gametocytes
# Parameters: BacTiter-Glo ATP luminescence viability of purified stage V gametocytes in 384-well plates, per cent inhibition versus DMSO
# measurement setup: 48 h, 5 µM; inhibitor
The campaign covered roughly 13,000 compounds. About 3,200 (25%) showed an effect of 50% or more. The list shows a part of the results.
Respond numerically; units are % and should not be typed.

[
  {
    "smiles data": "CC(=O)c1cccc(Nc2nc3c(C#N)c(OCc4cc(Cl)cc(Cl)c4)ccc3[nH]2)c1",
    "units symbol": "%",
    "% Inhibition": -0.7844
  },
  {
    "smiles data": "Cc1cc(Nc2ccnc(-c3ccc(Cl)cc3)n2)ccn1",
    "units symbol": "%",
    "% Inhibition": -5.017
  },
  {
    "smiles data": "Cc1cc(Nc2ccc(C)c(C)c2)n2nc(C)nc2n1",
    "units symbol": "%",
    "% Inhibition": 9.818
  },
  {
    "smiles data": "CN1CCN(c2ccc(-c3nc4c(C(N)=O)c(OCc5cc(Cl)cc(Cl)c5)ccc4[nH]3)cc2)CC1",
    "units symbol": "%",
    "% Inhibition": 101.6
  },
  {
    "smiles data": "Cc1cc(Nc2ccc(C)c(Cl)c2)n2nc(C(F)(F)F)nc2n1",
    "units symbol": "%",
    "% Inhibition": -6.645
  }
]

Look up and state reported % Inhibition for CCN(CC)CCN(Cc1ccc(-c2ccc(Cl)s2)cc1)C(=O)Cn1c(CCc2cccc(F)c2F)nc(=O)c2ccccc21
28.5

Look up and state reported % Inhibition for O=C(/C=C/c1ccc2ccccc2c1)NCC1(c2ccc(-c3ccccc3)cc2)CCOCC1
16.18

Look up and state reported % Inhibition for Cc1cc(Nc2ccc(Cl)c(Cl)c2)n2nc(C)nc2n1
-6.756

Look up and state reported % Inhibition for NC(N)=NC(=O)Nc1cc(Cl)c(F)c(Cl)c1
-14.8

* * *

# Test system: P. falciparum stage V gametocytes
# Parameters: BacTiter-Glo ATP luminescence viability of purified stage V gametocytes in 384-well plates, per cent inhibition versus DMSO
# measurement setup: 48 h, 5 µM; inhibitor
Among all 13,000 compounds or so, about 3,200 (25%) showed an effect of 50% or more. This is one part of the list.
Catalogue of molecules with associated % Inhibition

Known results for molecules:
[
  {
    "molecule": "O=C(NC(Nc1ccc([N+](=O)[O-])cc1)C(Cl)(Cl)Cl)c1ccc(Cl)cc1 (stereo not drawn) [TCMDC-125818]",
    "% Inhibition": "63.58%"
  },
  {
    "molecule": "Cc1c(F)cc(C(=O)NC2CC2)cc1-c1ccc2c(cnn2S(=O)(=O)c2ccc(C#N)cc2)c1 [TCMDC-135240]",
    "% Inhibition": "-5.005%"
  },
  {
    "molecule": "COc1ccc(S(=O)(=O)N2CCC(NS(=O)(=O)c3ccc(F)cc3)CC2)cc1 [TCMDC-123512]",
    "% Inhibition": "11.24%"
  },
  {
    "molecule": "COc1ccccc1CNC(=O)c1ccc(N2CCN(c3ccncc3)CC2)cn1 [TCMDC-135158]",
    "% Inhibition": "60.69%"
  },
  {
    "molecule": "O=C(Nc1ccsc1)Nc1cccc(-c2cccc(-c3nc4ccc(F)cc4[nH]3)c2)c1 [TCMDC-133216]",
    "% Inhibition": "-18.7%"
  }
]

Look up and state reported % Inhibition for O=C(NCCc1cccc(Cl)c1Cl)c1cnc(N2CCN(c3ccncc3)CC2)c(Cl)c1 [TCMDC-134597]
-18.32%

Look up and state reported % Inhibition for COc1cc(NC(=O)c2sc(-c3ccc(Cl)cc3)cc2NC(=O)CN2CC[C@@H](O)C2)ccc1OCCN1CCCC1 [TCMDC-135380]
114.3%

Look up and state reported % Inhibition for COc1cc2c(cc1OC)-c1cc(=Nc3c(C)cc(C)cc3C)n(C)c(=O)n1CC2 [TCMDC-125545]
16.19%

Look up and state reported % Inhibition for COc1cccc(C(O)CNc2ccnc(Nc3ccc(Cl)cc3)n2)c1 (stereo not drawn) [TCMDC-136575]
5.772%

Look up and state reported % Inhibition for FC(F)(F)c1ccc2nc(-c3cccc(-c4ccc(CNCCc5ccncc5)cc4)c3)[nH]c2c1 [TCMDC-132845]
-28.78%

* * *

# Test system: P. falciparum stage V gametocytes
# Design: BacTiter-Glo ATP luminescence viability of purified stage V gametocytes in 384-well plates, per cent inhibition versus DMSO
# measurement setup: 48 h, 5 µM; inhibitor
About 3,200 (25%) of roughly 13,000 compounds showed an effect of 50% or more. Some of the results follow.
Returns MET if the recorded % Inhibition is greater than or equal to 30%, and NOT MET otherwise.

[
  {
    "molecule": "N#Cc1ccc(-c2ccc(C(=O)NC3CCN(CCN4CCC(c5cn(CCO)c6ccccc56)CC4)CC3)cc2)cc1 [TCMDC-138858]",
    "system tested": "P. falciparum stage V gametocytes",
    "class name": "NOT MET"
  },
  {
    "molecule": "CCOc1ccc(C2CCN(CCN3CCC(NC(=O)c4ccc(-c5ccc(C(F)(F)F)cc5)cc4)CC3)CC2)c(OCC2CC2)c1 [TCMDC-138832]",
    "system tested": "P. falciparum stage V gametocytes",
    "class name": "NOT MET"
  },
  {
    "molecule": "CCOc1c(OC)ccc2c1CCN(CCN1CCC(CNC(=O)c3ccc(-c4ccc(C(F)(F)F)cc4)cc3)CC1)C2 [TCMDC-138806]",
    "system tested": "P. falciparum stage V gametocytes",
    "class name": "NOT MET"
  },
  {
    "molecule": "Cc1ccc(-c2cnc(N)c3cc(-c4ccnc(N)n4)ccc23)cc1 [TCMDC-134544]",
    "system tested": "P. falciparum stage V gametocytes",
    "class name": "NOT MET"
  },
  {
    "molecule": "CC(CN)OCn1cnc2c(N)ncnc21 (stereo not drawn) [TCMDC-137691]",
    "system tested": "P. falciparum stage V gametocytes",
    "class name": "NOT MET"
  }
]

Can CC1(C)CN(CCC2CCC(NC(=O)/C=C/c3ccc(F)cc3F)CC2)Cc2ccc(C#N)cc21 (stereo not drawn) [TCMDC-139504] be said to have % Inhibition at or above 30%?
NOT MET

Can N#Cc1ccc(-c2ccc(C(=O)NC3CCN(CCN4CCC(c5cn(CCOC6CCCCO6)c6ccccc56)CC4)CC3)cc2)cc1 (stereo not drawn) [TCMDC-138855] be said to have % Inhibition at or above 30%?
MET

Can CC(C)Cn1cc(C2CCN(CCN3CCC(CNC(=O)c4ccc(-c5ccc(C(F)(F)F)cc5)cc4)CC3)CC2)c2ccccc21 [TCMDC-138852] be said to have % Inhibition at or above 30%?
MET

Can COc1cc(NC(=O)C(c2ccc(Cl)cc2)C(C)C)cc(OC)c1 (stereo not drawn) [TCMDC-124823] be said to have % Inhibition at or above 30%?
MET

Can CCCC(C)c1cnc2nc(N)nc(N)c2c1C (stereo not drawn) [TCMDC-137924] be said to have % Inhibition at or above 30%?
NOT MET
